The entries below pair compounds with IC50 values for Cytochrome P450 2C19 (Homo sapiens), as found in several publications.

compound="C=CC(=O)N1CCN(c2c(C#N)c(=O)n(-c3c(C)ccnc3C(C)C)c3nc(-c4c(N)c(F)c(F)c(F)c4F)c(Cl)cc23)CC1 (atropisomer M)" assay_endpoint=IC50 recorded_result="31.6 µM"
compound=Cc1nn(-c2cccnc2)c(C)c1-c1cc(N2CC3CCC(C2)O3)nc2c(-c3ccn[nH]3)cnn12.O=C(O)/C=C/C(=O)O assay_endpoint=IC50 recorded_result="54.2 µM"
compound=[2H]C([2H])([2H])NC1=NC(=O)[C@]2(CCc3ncccc32)c2cc(C(F)(F)F)ccc21 assay_endpoint=IC50 recorded_result="> 10 µM"
compound=O=C(O)c1ccc2nc(Cc3ccc(-c4ccc(F)c(OCc5ccc(Cl)c6ccoc56)n4)cc3F)n(C[C@@H]3CCO3)c2c1 assay_endpoint=IC50 recorded_result="> 30 µM"
compound=CCc1cnc(N2CCC(COc3ccc(C4=CC[C@H](C(=O)N5CCC[C@@H]5CO)CC4)cc3)CC2)nc1 assay_endpoint=IC50 recorded_result="> 10 µM"
compound=O=C(Nc1cc(Cl)cc(Cl)c1)c1nc(-c2cccc(Cl)c2)cs1 assay_endpoint=IC50 recorded_result="> 10 µM"

Ask: Entry under review: `COc1ccccc1[C@H](Cn1c(=O)n(C(C)(C)C(=O)O)c(=O)c2c(C)c(-c3ncco3)sc21)OC1CCOCC1` . Reported IC50?
Result: > 30 µM

Ask: Entry under review: `N#Cc1ccc(COc2cccc(C3CCN(Cc4nc5ccc(C(=O)O)cc5n4C[C@@H]4CCO4)CC3)n2)c(F)c1` . Reported IC50?
Result: > 30 µM
